# System: SKBR-3 cell line (human breast cancer)
# Assay Protocol: Cytotoxicity Assay (Cell titer glo, 72 h), SKBR-3
# Type: cell-based
# Measurement Setup: ratio of payload IC50 to DXD control IC50
# strict inequality: Normalized IC50 (PL IC50/DXD IC50) < 9 yields 1, everything else yields 0

>  <Compound>
CC[C@@]1(O)C(=O)OCc2c1cc1n(c2=O)Cc2c-1nc1cc(F)c(C)cc1c2Cn1cc(C(C)(C)N)nn1

>  <Category Label>
1

$$$$
>  <Compound>
CC[C@@]1(O)C(=O)OCc2c1cc1n(c2=O)Cc2c-1nc1cc(F)c(C)cc1c2Cn1cc(COC2CCCCO2)nn1 (stereo partly shown)

>  <Category Label>
1

$$$$
>  <Compound>
CC[C@@]1(O)C(=O)OCc2c1cc1n(c2=O)Cc2c-1nc1cc(F)c(C)cc1c2Cn1cc(CNC(=O)CN)nn1

>  <Category Label>
0

$$$$
>  <Compound>
CC[C@@]1(O)C(=O)OCc2c1cc1n(c2=O)Cc2c-1nc1cc(F)c(C)cc1c2Cn1cc(CN2CCCCC2CO)nn1 (stereo partly shown)

>  <Category Label>
1

$$$$
>  <Compound>
CC[C@@]1(O)C(=O)OCc2c1cc1n(c2=O)Cc2c-1nc1cc(F)c(C)cc1c2Cn1cc(-c2ccccc2N)nn1

>  <Category Label>
1

$$$$
>  <Compound>
CC[C@@]1(O)C(=O)OCc2c1cc1n(c2=O)Cc2c-1nc1cc(F)c(C)cc1c2Cn1cc(C(C)(C)NC(=O)CO)nn1

>  <Category Label>
0

$$$$
>  <Compound>
CC[C@@]1(O)C(=O)OCc2c1cc1n(c2=O)Cc2c-1nc1cc(F)c(C)cc1c2Cn1cc(CCNC(=O)CO)nn1

>  <Category Label>
0

$$$$

# credit: patent US20260315612A1
